Origin of the recorded values: PubChem BioAssay AID179

# Lookup of reported IC50 keyed by entry
Tested on: CEM cells HIV-1 protection, formazan growth assay
Assay: NCI AIDS Antiviral Assay
Details: measured here: growth of uninfected CEM cells
Number in µM, nothing else.

Look over these answered cases.
{"COMPOUND": "O=C(Nc1ccccn1)Nc1ccccn1", "IC50 / µM": 107}
{"COMPOUND": "CC1=C(C(=O)Nc2ccc(Cl)c(Cl)c2)C(c2ccco2)C(C(=O)Nc2ccc(Cl)c(Cl)c2)=C(C)N1", "IC50 / µM": 13.8}
{"COMPOUND": "O=C(CN1C(=O)CC(c2ccccc2)(c2ccccc2)C1=O)N1CCN(CCO)CC1", "IC50 / µM": 151}
{"COMPOUND": "O=C1c2ccccc2C2(c3ccc(Cl)cc3)NCc3ccccc3CN12 (centres undefined)", "IC50 / µM": 12.9}
{"COMPOUND": "Cn1c(=S)[nH]c2c(Cl)cc(Cl)cc2c1=O", "IC50 / µM": 138}

Report IC50 for `CCOC(=O)Cc1csc2[n+]1C(=O)/C(=C/c1ccc(OC)c(OC)c1)S2` please.
20

Same question for `CSc1cnc2ccccc2c1Sc1cn(C)c2ccccc2c1=O` please.
31.6

----------
Test system: CEM cells HIV-1 protection, formazan growth assay
Experiment: NCI AIDS Antiviral Assay
Active and inactive are the calls of the source.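 The calls were made as follows: active = compounds giving half or more protection of infected cells from virus-caused growth loss, again on retest; inactive = the rest.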
ASSAY ENDPOINT: outcome

Look over these answered cases.
{"COMPOUND": "Cc1cc(C)nc(NS(=O)(=O)c2ccc(N=c3c4ccccc4n(C)c4ccccc34)cc2)n1", "ASSAY ENDPOINT": "outcome", "RESULT": "inactive"}
{"COMPOUND": "Cc1ccc(S(=O)Cc2ccc(C(=O)O)cc2[N+](=O)[O-])cc1 (stereo not given)", "ASSAY ENDPOINT": "outcome", "RESULT": "inactive"}
{"COMPOUND": "CC(C)(C)CC(C)(C)c1ccc(OCCOCC[N+](C)(C)Cc2ccccc2)cc1", "ASSAY ENDPOINT": "outcome", "RESULT": "inactive"}
{"COMPOUND": "COC1=C(C)C(=O)C(=O)c2ccccc21", "ASSAY ENDPOINT": "outcome", "RESULT": "inactive"}
{"COMPOUND": "O=C(N/N=C/c1cc(Cl)cc(Cl)c1[OH2+])c1ccncc1.O=S(=O)([O-])[O-].[Fe+2]", "ASSAY ENDPOINT": "outcome", "RESULT": "inactive"}
{"COMPOUND": "N#CC1(C#N)C2C=CC(c3coc4cccc2c34)C1(C#N)C#N (stereo not given)", "ASSAY ENDPOINT": "outcome", "RESULT": "inactive"}
{"COMPOUND": "COc1ccc2cc1Oc1ccc(cc1)CC1c3cc4c(cc3CCN1C)Oc1c(OC)cc3c(c1O4)C(C2)N(C)CC3 (stereo not given)", "ASSAY ENDPOINT": "outcome", "RESULT": "inactive"}
{"COMPOUND": "NC(CCC(=O)NC(CSSCCCCS(=O)O)C(=O)NCC(=O)O)C(=O)O (stereo not given)", "ASSAY ENDPOINT": "outcome", "RESULT": "inactive"}

Okay, now this compound:
Report outcome for `CC(=O)Nc1cc(S(=O)(=O)O)cc2c(N=Nc3ccc(C(=O)Nc4ccc(N=Nc5ccc(S(=O)(=O)O)cc5)cc4)cc3)c(S(=O)(=O)O)cc(O)c12` please.
inactive

----------
Tested on: CEM cells HIV-1 protection, formazan growth assay
Experiment: NCI AIDS Antiviral Assay
Details: measured here: growth of uninfected CEM cells
ASSAY ENDPOINT: IC50

{"COMPOUND": "Cc1ccc(-c2sc(-c3ccc(C)cc3)c3c2C2CCC3C2)cc1", "IC50": "> 200 µM"}
{"COMPOUND": "O=Cc1ccccc1OCCOc1cc(OCCOc2ccccc2C=O)c(OCCOc2ccccc2C=O)cc1OCCOc1ccccc1C=O", "IC50": "> 1.41 µM"}
{"COMPOUND": "CCC(=O)C(C)C(=O)C(=O)C(=O)OC (stereo unspecified)", "IC50": "> 13.5 µM"}
{"COMPOUND": "O=C1Oc2cc3c(c4cccc1c24)OCN(c1ccc(Cl)cc1)C3", "IC50": "> 8.13 µM"}
{"COMPOUND": "CC(=O)c1c2n(n(-c3ccccc3)c1=O)C(=O)c1nccnc1-2", "IC50": "> 200 µM"}

Okay, now this compound:
Reported IC50 for CEM cells HIV-1 protection, formazan growth assay, given `CC1=NOCC(=O)N1` ?
> 2190 µM

----------
# Lookup of reported IC50 keyed by entry
Test system: CEM cells HIV-1 protection, formazan growth assay
Assay: NCI AIDS Antiviral Assay
Details: measured here: growth of uninfected CEM cells
Method: The ability of compounds to protect human CEM cells from HIV-1 infection is measured as a screen for new compounds capable of inhibiting the HIV virus. Five concentrations of drug were tested on uninfected and infected cells and cell growth was measured using a soluble formazan assay. […] Compounds that provided at least 50% protection were retested. Compounds that provided at least 50% protection on retest were listed as moderately active. […]

{"COMPOUND": "Cc1c(Cl)ccc2c1NC(=O)C2(O)CC(=O)c1ccc(Cl)cc1 (stereo not given)", "RESULT": "> 31.6 µM"}
{"COMPOUND": "CCCCCCC(C)S(=O)(=O)O (stereo not given)", "RESULT": "> 200 µM"}
{"COMPOUND": "O=C1C2C3C=C4c5ccccc5N(c5ccccc5)C4([C@@H]2C(=O)N1c1ccc(F)cc1)[C@H]1C(=O)N(c2ccc(F)cc2)C(=O)[C@@H]31 (stereo not given in full)", "RESULT": "> 12 µM"}
{"COMPOUND": "COc1ccccc1NC(=O)CC(=O)NNCC(=O)Nc1nnc(-c2ccccc2)o1", "RESULT": "> 85.1 µM"}

Okay, now this compound:
Report IC50 for O=CCC(O)C(O)C(O)CO (stereo not given) please.
> 759 µM

----------
Tested on: CEM cells HIV-1 protection, formazan growth assay
Experiment: NCI AIDS Antiviral Assay
Conditions: measured here: growth of uninfected CEM cells
pIC50: −log10 of the molar value.
# Lookup of reported pIC50 keyed by entry

{"COMPOUND": "C[C@@H]1O[C@]2(O)[C@@H]3CCCN3S(=O)(=O)CCN2C1=O", "TEST SYSTEM": "CEM cells HIV-1 protection, formazan growth assay", "ASSAY ENDPOINT": "pIC50", "RESULT": "< 3.04"}
{"COMPOUND": "COC1C=CC23c4cc5c(cc4COC2(O)CN(C)C3C1)OCO5 (stereo not drawn)", "TEST SYSTEM": "CEM cells HIV-1 protection, formazan growth assay", "ASSAY ENDPOINT": "pIC50", "RESULT": "< 3.26"}
{"COMPOUND": "Cc1cc(C)c(-n2c(-c3ccc(Br)cc3)cs/c2=N\\N=C2C=C(C(C)(C)C)C(=O)C(C(C)(C)C)=C2)c(C)c1", "TEST SYSTEM": "CEM cells HIV-1 protection, formazan growth assay", "ASSAY ENDPOINT": "pIC50", "RESULT": "< 5.61"}

Okay, now this compound:
Report pIC50 for C1=CN2C(c3ccccc3)=NON(c3ncccn3)C2N=C1 (stereo not drawn) please.
< 4.33

----------
# Lookup of reported pIC50 keyed by entry
Test system: CEM cells HIV-1 protection, formazan growth assay
Test: NCI AIDS Antiviral Assay
Conditions: measured here: growth of uninfected CEM cells
pIC50: −log10 of the molar value.

Look over these answered cases.
{"COMPOUND": "N#Cc1nc(/C=C/c2cccnc2)oc1N", "pIC50": "< 3.70"}
{"COMPOUND": "O=C(Nc1nc2ccccc2n1Cc1ccccc1)C(=O)NC12CC3CC(CC(C3)C1)C2", "pIC50": "< 4.36"}
{"COMPOUND": "CC(=O)C1Cn2c(=O)c3cc4ccccc4cc3c(=O)n2C=C1C (stereo unspecified)", "pIC50": "< 3.95"}
{"COMPOUND": "CC(=O)OCC1OC(n2c(-c3ccc(C)cc3)cc(-c3ccco3)c(C#N)c2=O)C(OC(C)=O)C(OC(C)=O)C1OC(C)=O (stereo unspecified)", "pIC50": "< 4.79"}
{"COMPOUND": "COC(=O)CNS(=O)(=O)c1ccc(-c2c3nc(c(-c4ccc(S(=O)(=O)NCC(=O)OC)cc4)c4ccc([nH]4)c(-c4ccc(S(=O)(=O)NCC(=O)OC)cc4)c4nc(c(-c5ccc(S(=O)(=O)NCC(=O)OC)cc5)c5ccc2[nH]5)C=C4)C=C3)cc1", "pIC50": "< 4.00"}

Okay, now this compound:
Report pIC50 for `CCCOC1=NC2=NC(OCCC)=NC3=C(Br)C=C(Br)C(=N1)N23` please.
< 4.37

----------
Tested on: CEM cells HIV-1 protection, formazan growth assay
Experiment: NCI AIDS Antiviral Assay;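 active = compounds giving half or more protection of infected cells from virus-caused growth loss, again on retest; inactive = the rest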
Your response should consist of one outcome taken from True for active, False for inactive

Status in this test for CC(C#N)N(CCc1ccccc1)C(=O)c1ccccc1 (stereo unspecified) ?
False

Same question for `CC(C)CC(=O)N1CCN(C(=O)CC(C)C)c2ccccc21` please.
False

Same question for `O=C(OCc1ccccc1)N1CCN(C(=O)OCc2ccccc2)CCN(C(=O)OCc2ccccc2)CCN(C(=O)OCc2ccccc2)CCN(C(=O)OCc2ccccc2)CC1` please.
False

Same question for `O=[N+]([O-])c1cccc2nc3ccccc3c(NCCCN3CCOCC3)c12` please.
False

Same question for CCOC(=O)C1=C(C)N(NC(=O)Nc2ccccc2)C2(N)N(NC(=O)Nc3ccccc3)C(C)=C(C(=O)OCC)C12C#N (stereo unspecified) please.
False

Same question for `COc1ccc(C(=O)NC(=S)Nc2ccccc2)cc1` please.
False

Same question for `O=C(Nc1nc2ccsc2s1)c1ccccc1` please.
True

Same question for CCCOc1cnc([C@H]2CCC3[C@@H]4CC=C5C[C@@H](O)CC[C@]5(C)C4CC[C@@]32C)s1 (stereo partly specified) please.
False
